Test system: Mus musculus
measurement.description: Sedative-hypnotic activity in Swiss Albino mouse assessed as CNS depression at 5 mg/kg, po after 3 hrs
Assay type: functional
quantity.name: Activity (%)
Write the answer as a number in %, unit excluded.

Data point: CCc1nnc2n(-c3ccccc3C)c(=O)c3ccccc3n12 ; Activity = 9

Data point: Cc1ccccc1-n1c(=O)c2ccccc2n2c(CN3CCNCC3)nnc12 ; Activity = 9

Data point: CN(C)CCC(c1ccc(Cl)cc1)c1ccccn1.O=C(O)/C=C\C(=O)O (stereo unspecified) [CHLORPHENIRAMINE MALEATE] ; Activity = 22

Data point: Cc1ccccc1-n1c(=O)c2ccccc2n2cnnc12 ; Activity = 5

Data point: CCCc1nnc2n(-c3ccccc3C)c(=O)c3ccccc3n12 ; Activity = 8

Data point: Cc1ccccc1-n1c(=O)c2ccccc2n2c(N3CCCC3)nnc12 ; Activity = 7

Data point: Cc1ccccc1-n1c(=O)c2ccccc2n2c(CN3CCCCC3)nnc12 ; Activity = 9

Data point: Cc1ccccc1-n1c(=O)c2ccccc2n2c(C)nnc12 ; Activity = 8

Data point: Cc1ccccc1-n1c(=O)c2ccccc2n2c(CN3CCN(C)CC3)nnc12 ; Activity = 10

Data point: Cc1ccccc1-n1c(=O)c2ccccc2n2c(N3CCOCC3)nnc12 ; Activity = 10

Data point: Cc1ccccc1-n1c(=O)c2ccccc2n2c(CCl)nnc12 ; Activity = 4

The reported numbers originate from ChEMBL document CHEMBL1154432.
